# credit: ChEMBL document CHEMBL4689842

# System: U2OS
# Procedure Details: Multiplex assay against U2OS
# Assay type: toxicity, cell-based
# Condition Parameters: human, 48 h, 10 µM, compound concentration 10 uM, replicate 1
Readout Label: Population Membrane Permeable-Phenotype (%)

>>> data_value("COc1ccc(NS(=O)(=O)c2sc3ccc(Cl)cc3c2C)cc1N1CCNCC1.Cl")
"46%"

Okay, here is my list. What is Population Membrane Permeable-Phenotype (%) for each of these?
1. CCn1c(-c2nonc2N)nc2cnc(Oc3cccc(NC(=O)c4ccc(OCCN5CCOCC5)cc4)c3)cc21 [GSK-269962A]
2. C1=N/C2=N/c3ccc(OCCN4CCCC4)c(c3)COC/C=C\COCc3cccc(c3)C(=C1)N2
3. CNc1oc(-c2cccc3ccccc23)nc1C#N
4. CC(C)N1CCC(C)(C)c2cc(C#Cc3ccc(C(=O)O)cc3)ccc21
5. Cc1nc(Cc2cccc(C(F)(F)F)c2)sc1-c1ccc(C(N)=O)nc1 [TP-024n]
6. COc1cc2c(NC3CCN(C(C)C)CC3)nc(N3CCC(F)(F)CC3)nc2cc1OCCCN1CCCC1
7. O=C(O)c1ccc2cc(-c3ccc(O)c(C45CC6CC(CC(C6)C4)C5)c3)ccc2c1

["71%", "100%", "3%", "1%", "10%", "55%", "0%"]

----------
# Test system: U2OS
# Procedure Details: Multiplex assay against U2OS
# Assay type: toxicity, cell-based
# Condition Parameters: human, 24 h, 10 µM, compound concentration 10 uM, replicate 1
Answer each item with its documented Population Apoptotic (%).
Numbers only, in %.

As a guide, the following entries are already answered.
>>> data_value("CNc1oc(-c2cccc3ccccc23)nc1C#N")
86
>>> data_value("CCn1c(-c2nonc2N)nc2cnc(Oc3cccc(NC(=O)c4ccc(OCCN5CCOCC5)cc4)c3)cc21 [GSK-269962A]")
70
>>> data_value("CCN1CCN(Cc2ccc(NC(=O)c3ccc(C)c(Oc4ccnc5[nH]ccc45)c3)cc2C(F)(F)F)CC1.Cl.Cl.Cl.O")
37
>>> data_value("CC(C)N1CCC(C)(C)c2cc(C#Cc3ccc(C(=O)O)cc3)ccc21")
70

Next item in the queue.
Please look up its Population Apoptotic (%): Nc1nc2c(c(N3CCNCC3)n1)CCC1=C2[C@@H]2CCCC[C@@H]2O1
40

----------
# System: Fibroblast
# Procedure Details: Multiplex assay against human fibroblast
# Format: toxicity, cell-based
# Condition Parameters: 12 h, 10 µM, compound concentration 10 uM, replicate 2
Please use yes (1) whenever Population Fragmented Nuclei (%) is not below 60%, and no (0) whenever it is.

>>> discrete_label("CN(C)C/C=C/C(=O)Nc1cc2c(Nc3ccc(F)c(Cl)c3)ncnc2cc1O[C@H]1CCOC1.O=C(O)/C=C\\C(=O)O.O=C(O)/C=C\\C(=O)O [AFATINIB DIMALEATE]")
"no (0)"
>>> discrete_label("CC(C)N1CCC(C)(C)c2cc(C#Cc3ccc(C(=O)O)cc3)ccc21")
"no (0)"

Is Population Fragmented Nuclei (%) for CCOc1cc(N2CCC(O)CC2)ccc1Nc1ncc2c(n1)N(C1CCCC1)CCC(=O)N2C at or above 60%?
no (0)

Is Population Fragmented Nuclei (%) for CN(C)CCOc1ccc(-c2nc(-c3ccncc3)c(-c3ccc4c(c3)CC/C4=N\O)[nH]2)cc1 at or above 60%?
yes (1)

Dear colleague, could you confirm whether CNc1oc(-c2cccc3ccccc23)nc1C#N has Population Fragmented Nuclei (%) at or above 60%?
no (0)

# bool: Population Fragmented Nuclei (%) of CC(C)(C)c1cnc(CSc2cnc(NC(=O)C3CCNCC3)s2)o1 >= 60%
no (0)

Exam item: decide whether the reported Population Fragmented Nuclei (%) for COc1cc2c(NC3CCN(C(C)C)CC3)nc(N3CCC(F)(F)CC3)nc2cc1OCCCN1CCCC1 is at least 60%.
no (0)

Hello, I need to know if COc1ccc(NS(=O)(=O)c2sc3ccc(Cl)cc3c2C)cc1N1CCNCC1.Cl has measured Population Fragmented Nuclei (%) not below 60%. Thanks!
no (0)

Item Cl.Cl.NC1(c2ccc(-c3nc4ccn5c(=O)[nH]nc5c4cc3-c3ccccc3)cc2)CCC1 with Population Fragmented Nuclei (%) of 60% or above?
yes (1)

Determine whether measured Population Fragmented Nuclei (%) meets or exceeds 60% for CCn1c(-c2nonc2N)nc2cnc(Oc3cccc(NC(=O)c4ccc(OCCN5CCOCC5)cc4)c3)cc21 [GSK-269962A]
no (0)

----------
# System: HEK-293T
# Procedure Details: Multiplex assay against HEK293T
# Type: toxicity, cell-based
# Condition Parameters: human, 48 h, 10 µM, compound concentration 10 uM, replicate 1
Quick rule: Population Normal (%) of at least 80% means fulfilled, below that means not fulfilled.

Does the molecule COc1cc(N2CCC(N(C)C)CC2)ccc1Nc1ncc(Cl)c(Nc2ccccc2P(C)(C)=O)n1 have recorded Population Normal (%) that is 80% or more?
not fulfilled

Has Nc1ccc(C(=O)Nc2cccc(-c3nc(N4CCOCC4)c4oc5ncccc5c4n3)c2)cn1 a recorded Population Normal (%) greater than or equal to 80%?
not fulfilled

Population Normal (%) >= 80% for CC(C)Oc1ccc(C(=O)N[C@H](CNC(=O)CN(C)C)Cc2ccc(-c3cn4cccc([C@H](C)O)c4n3)cc2)cc1Cl [GSK-923295A] ?
not fulfilled

Could you verify whether the entry C1=N/C2=N/c3ccc(OCCN4CCCC4)c(c3)COC/C=C\COCc3cccc(c3)C(=C1)N2 shows Population Normal (%) of no less than 80%?
not fulfilled

Form field: Population Normal (%) at least 80%? Entry: CCc1cc2c(cc1CC)CC(NC[C@H](O)c1ccc(O)c3[nH]c(=O)ccc13)C2
not fulfilled

Is the recorded value of Population Normal (%) equal to or greater than 80% for this molecule? CCn1c(-c2nonc2N)nc2cnc(Oc3cccc(NC(=O)c4ccc(OCCN5CCOCC5)cc4)c3)cc21 [GSK-269962A]
fulfilled

----------
# Test system: HEK-293T
# Procedure Details: Incucyte cell viability with HEK293T; also: filed as whole numbers so only -1 and 0 and 1 occur
# Assay type: toxicity, cell-based
# Condition Parameters: human, 24 h, 10 µM, compound concentration 10 uM, replicate number 1, timepoint 24 hours
Readout Label: Growth Rate
Answers are plain numbers.

Examples from the recorded data:
>>> data_value("N#Cc1cnc(Nc2cc(NC[C@H]3CNCCO3)c(C(F)(F)F)cn2)cn1 [SRA-737]")
0
>>> data_value("Cc1cc2c(cc1N1C(=O)c3cccc4c(CCCO)ccc(c34)C1=O)n(C)c(=O)n2C")
1
>>> data_value("CC(C)Oc1ccc(C(=O)N[C@H](CNC(=O)CN(C)C)Cc2ccc(-c3cn4cccc([C@H](C)O)c4n3)cc2)cc1Cl [GSK-923295A]")
0
>>> data_value("Nc1nc(NCc2ccccc2)nc(-c2cccc(CO)c2)n1 [ZINC32547799]")
0
>>> data_value("CC(=O)c1cc(-c2cc(C(=O)NC3CC3)ccc2C)c2ncccn12")
0

I'm hoping you can list Growth Rate for every molecule here, please.
1. CCCCN(CCCC)C(=O)CN1C[C@@H](c2cc(OC)c3c(c2)OCO3)[C@H](C(=O)O)[C@H]1CC(C)(C)CCC.Cl
2. O=C(NCc1ccc(F)cc1)C1CCN(S(=O)(=O)c2cc(Cl)cc(Cl)c2)CC1
3. FC(F)(F)c1c(N2CCC(c3ccccc3)CC2)ccn2c(CC3CC3)nnc12

1. 0
2. 0
3. 0

Please give Growth Rate for each item listed below.
1. CC(C)NCC(O)c1ccc(N)c(C#N)c1 (centres undefined) [CIMATEROL]
2. Cc1cccc(NC(=O)N[C@@H]2N=C(c3ccccc3)c3ccccc3N(C)C2=O)c1 [L-365260]
3. Cc1cn(-c2cc(NC(=O)c3ccc4c(c3)CN(c3cncnc3)C[C@@H]4C)cc(C(F)(F)F)c2)cn1
4. O=C(O)COc1cccc(CN(Cc2ccc(-n3cccn3)cc2)S(=O)(=O)c2cccnc2)c1
5. CCCc1cc(C)[nH]c(=O)c1CNC(=O)c1cc(-c2ccnc(N3CCN(C)CC3)c2)cc2c1cnn2C(C)C
6. CN(C)C(=O)Cn1cc(-c2nc(C3(c4ccc(-c5cnc(N)nc5)cc4)CC3)no2)cn1 [BI 0153]
7. CN(C)CC[C@@H](c1ccc(Cl)cc1)c1ccccn1.O=C(O)/C=C\C(=O)O [DEXCHLORPHENIRAMINE MALEATE]

1: 0; 2: 0; 3: 0; 4: 1; 5: 0; 6: 0; 7: 1

For each of the items listed, what is its Growth Rate?
1. CN(C)C/C=C/C(=O)Nc1cc2c(Nc3ccc(F)c(Cl)c3)ncnc2cc1O[C@H]1CCOC1.O=C(O)/C=C\C(=O)O.O=C(O)/C=C\C(=O)O [AFATINIB DIMALEATE]
2. CCOC(=O)c1cc(C#N)c(N2CCC(C(=O)NS(=O)(=O)Cc3ccccc3)CC2)nc1C
3. CCN1CCN(Cc2ccc(NC(=O)c3ccc(C)c(Oc4ccnc5[nH]ccc45)c3)cc2C(F)(F)F)CC1.Cl.Cl.Cl.O

1: 0; 2: 0; 3: 0

Look at each molecule and report its Growth Rate.
1. CCCCN(CCCC)C(=O)CN1C[C@@H](c2ccc3c(c2)OCO3)[C@H](C(=O)O)[C@H]1c1ccc(OC)cc1
2. O=C(O)c1ccc2c(c1)nc(Nc1cccc(Cl)c1)c1ccncc12 [SILMITASERTIB]
3. CC(=O)N1CCC(c2ccc(C(=O)NC3=NCCN3)cc2C(F)(F)F)CC1 [BI 0054]
4. O=C(O)c1ccc2cc(-c3ccc(O)c(C45CC6CC(CC(C6)C4)C5)c3)ccc2c1 [O-DEMETHYLATED ADAPALENE]

1
0
1
0

Value sought for every listed molecule: Growth Rate.
1. CCOc1cc2ncc(C#N)c(Nc3ccc(OCc4cccc(F)c4)c(Cl)c3)c2cc1NC(=O)/C=C/CN(C)C [HKI-357]
2. Nc1ccc(C(=O)Nc2cccc(-c3nc(N4CCOCC4)c4oc5ncccc5c4n3)c2)cn1
3. COc1cccc(OC)c1-c1cc(C(=O)NC2(C(=O)O)C3CC4CC(C3)CC2C4)nn1-c1ccnc2cc(Cl)ccc12 (centres undefined) [REMINERTANT]
4. Cc1cc(C)cc(C(=O)N(C)[C@H](Cc2ccc(-c3ccccc3)cc2)C(=O)N[C@@H](Cc2c[nH]c3ccccc23)C(=O)O)c1
5. CC(C)Oc1ccc(-c2nn([C@@H](C)c3oc4ccc(F)cc4c(=O)c3-c3cccc(F)c3)c3ncnc(N)c23)cc1F [UMBRALISIB]
6. Nc1nc2c(c(N3CCNCC3)n1)CCC1=C2[C@@H]2CCCC[C@@H]2O1
7. c1ccc2oc(-c3csc(C4CCN(Cc5nc6ncccc6[nH]5)CC4)n3)cc2c1
8. COc1ccc(/C=C/CCCCOc2ccc(C(=O)c3cccc(C(=O)O)c3)cc2CCC(=O)O)cc1

[0, 0, 0, 0, 0, 0, 0, 1]

Parameters: items (list). Returns: Growth Rate for each item.
1. Cn1cc(-c2ccc3occ(-c4ccccc4-c4ccccc4)c3n2)cn1
2. O=C(Nc1cccnc1)c1cc(-c2ccnc(F)c2)ccc1OCc1ccccc1
3. CCC(=O)N[C@@H]1CC[C@H](C(=O)N(C)c2ccc(-c3nc4ccccc4o3)cc2)C1 [BI 99990]
4. CC(C)CC(=O)N1CCc2nc(-c3ccc(Br)cc3)nc(N(C)Cc3ccccc3)c2C1 [THPP-1-NC]

[1, 1, 0, 1]
